// reported Activity, +100 nM BP, DF-1000002 per item
Molecular target: T1, IL-18 binding protein (IL-18BP) (UniProt O95998 31-194)
T1 sequence (looked up): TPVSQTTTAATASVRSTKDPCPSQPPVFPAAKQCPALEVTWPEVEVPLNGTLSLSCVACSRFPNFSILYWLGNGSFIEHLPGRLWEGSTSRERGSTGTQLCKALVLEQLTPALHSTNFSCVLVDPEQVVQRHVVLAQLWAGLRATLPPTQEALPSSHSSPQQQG
Assay: cell-based or functional assay
measured-quantity: Activity, +100 nM BP, DF-1000002

IL-18 variant G3Q, E6N (ligand) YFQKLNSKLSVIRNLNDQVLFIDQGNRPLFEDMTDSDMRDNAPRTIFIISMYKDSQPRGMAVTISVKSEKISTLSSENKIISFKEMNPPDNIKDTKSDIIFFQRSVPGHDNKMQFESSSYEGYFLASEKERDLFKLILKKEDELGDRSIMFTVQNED | 1.88
IL-18 variant G3P, E6I, K53N, D54W, S55P, T63S, N91L, R104Q (ligand) YFPKLISKLSVIRNLNDQVLFIDQGNRPLFEDMTDSDMRDNAPRTIFIISMYNWPQPRGMAVSISVKSEKISTLSSENKIISFKEMNPPDLIKDTKSDIIFFQQSVPGHDNKMQFESSSYEGYFLASEKERDLFKLILKKEDELGDRSIMFTVQNED | 0.08
IL-18 variant G3P, E6K, K53N, D54S, S55P, T63S, N91S, R104Q (ligand) YFPKLKSKLSVIRNLNDQVLFIDQGNRPLFEDMTDSDMRDNAPRTIFIISMYNSPQPRGMAVSISVKSEKISTLSSENKIISFKEMNPPDSIKDTKSDIIFFQQSVPGHDNKMQFESSSYEGYFLASEKERDLFKLILKKEDELGDRSIMFTVQNED | 0.07
